- studyTarget: UniProtKB Q9NPD5
- Sequence (Q9NPD5 whole entry): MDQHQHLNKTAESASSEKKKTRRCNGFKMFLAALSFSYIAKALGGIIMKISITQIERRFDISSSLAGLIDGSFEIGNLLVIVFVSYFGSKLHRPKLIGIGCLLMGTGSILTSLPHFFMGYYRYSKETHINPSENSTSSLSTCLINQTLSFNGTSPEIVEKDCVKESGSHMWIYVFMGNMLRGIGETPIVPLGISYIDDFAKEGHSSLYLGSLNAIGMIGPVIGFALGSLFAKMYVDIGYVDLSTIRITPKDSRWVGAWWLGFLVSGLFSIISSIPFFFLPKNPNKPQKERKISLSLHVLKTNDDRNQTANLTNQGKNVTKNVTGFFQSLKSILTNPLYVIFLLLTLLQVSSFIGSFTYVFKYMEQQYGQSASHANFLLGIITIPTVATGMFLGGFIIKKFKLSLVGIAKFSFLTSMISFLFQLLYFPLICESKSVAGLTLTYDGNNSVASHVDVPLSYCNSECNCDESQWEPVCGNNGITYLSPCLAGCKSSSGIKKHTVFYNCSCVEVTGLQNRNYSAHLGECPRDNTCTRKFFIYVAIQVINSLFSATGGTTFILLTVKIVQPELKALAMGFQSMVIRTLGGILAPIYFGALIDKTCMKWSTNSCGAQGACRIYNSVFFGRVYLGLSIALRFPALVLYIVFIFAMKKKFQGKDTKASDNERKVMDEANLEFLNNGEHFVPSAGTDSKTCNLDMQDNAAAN
- experimentalConditions: antibiotic as perpetrator, salvianolic acid B (X10) as victim; (Cmax × fu-p × R)/IC50
assayEndpoint: Inhibition DDI index, OATP1B3

Example results:
[
  {
    "compound": "Cn1nnnc1SCC1=C(C(=O)O)N2C(=O)[C@@H](NC(=O)[C@H](O)c3ccccc3)[C@H]2SC1 [A11, cefamandole]",
    "studyTarget": "UniProtKB Q9NPD5",
    "Inhibition DDI index, OATP1B3": 1.70
  },
  {
    "compound": "CO/N=C(\\C(=O)N[C@@H]1C(=O)N2C(C(=O)O)=C(CSc3nc(=O)c(=O)[nH]n3C)CS[C@H]12)c1csc(N)n1 [A6, ceftriaxone]",
    "studyTarget": "UniProtKB Q9NPD5",
    "Inhibition DDI index, OATP1B3": 0.68
  }
]

(a) CO[C@@]1(NC(=O)Cc2cccs2)C(=O)N2C(C(=O)O)=C(COC(N)=O)CS[C@@H]21 [A20, cefoxitin]
(b) CC1(C)S[C@@H]2[C@H](NC(=O)[C@H](N)c3ccccc3)C(=O)N2[C@H]1C(=O)O [A16, ampicillin]
(c) Cc1onc(-c2c(F)cccc2Cl)c1C(=O)N[C@@H]1C(=O)N2[C@@H]1SC(C)(C)[C@@H]2C(=O)O [A19, flucloxacillin]
Order field: Inhibition DDI index, OATP1B3 | Direction: descending (largest first) Labels, ranked as asked.
b, a, c
